- Test method notes: Oral pharmacokinetics in humans
- Format: in vivo
- Assay setup: human, in vivo, po, 20 mg
Measured attribute: Cmax

stdin: Look up Cmax: Cc1[nH]c2ccccc2c1CCNCc1ccc(/C=C/C(=O)NO)cc1 [Panobinostat]
stdout: ~70 nM
